TARGET OF ASSAY: FTSJ1 (FTSJ1-His) (Homo sapiens)
Construct: full-length, C-terminal His6-tag kept, baculovirus/High Five insect cells; cDNA from HeLa RNA; 327 residues as printed
Sequence (Q9UET6 1-327 isoform Q9UET6-2): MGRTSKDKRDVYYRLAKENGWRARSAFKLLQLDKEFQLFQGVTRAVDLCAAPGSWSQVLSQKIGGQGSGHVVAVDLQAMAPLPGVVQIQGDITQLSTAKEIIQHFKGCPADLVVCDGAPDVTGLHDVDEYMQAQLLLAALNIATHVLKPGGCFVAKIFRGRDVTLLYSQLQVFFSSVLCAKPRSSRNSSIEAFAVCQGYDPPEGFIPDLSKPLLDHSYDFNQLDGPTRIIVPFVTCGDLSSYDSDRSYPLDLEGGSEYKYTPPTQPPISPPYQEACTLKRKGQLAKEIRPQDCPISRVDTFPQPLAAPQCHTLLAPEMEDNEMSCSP
PROCEDURE SUMMARY: isothermal titration calorimetry (iTC200), one-site model
pKd: −log10 of the molar value.
MEASURE NAME: pKd

The compound identified as C[S+](CC[C@H](N)C(=O)O)C[C@H]1O[C@@H](n2cnc3c(N)ncnc32)[C@H](O)[C@@H]1O (stereo partly shown) registered its pKd at ~5.40

Where do these numbers come from? They come from paper PMC7403668.
